Provide the recorded pEC50 for the entries that follow.
# Test system: NQO1 specific enzyme activity in BEAS-2B cells (marker for NRF2 activation)
# runDescription: BEAS-2B NQO1 MTT Assay
# Assay type: cell-based
# conditionNotes: Homo sapiens, BEAS-2B, 48 h, NQO1 specific activity induction, 48 hours with compound
pEC50: −log10 of the molar value. Counter-ions that a name gives are not always drawn.

Notebook: Cc1ccc(C(OCc2cn(CC3CCN(C4CCN(C)CC4)CC3)nn2)C(C)(C)C(=O)O)cc1CN1C[C@@H](C)Oc2ccccc2S1(=O)=O (stereo partly drawn) [Example 55, Formic Acid Salt] , pEC50 read as 6.00 to 7.00

Notebook: Cc1ccc(C(OCc2cn(CC3CCN(S(C)(=O)=O)CC3)nn2)C(C)(C)C(=O)O)cc1CN1C[C@@H](C)Oc2ccccc2S1(=O)=O (stereo partly drawn) [Example 36] , pEC50 read as 7.00 to 8.00

Notebook: CC[C@H]1Cc2ccccc2S(=O)(=O)N(Cc2cc([C@@H](OCc3cn(C)nn3)C(C)(C)C(=O)O)ccc2C)C1 [Example 119] , pEC50 read as > 9.00
